Assay: Multiple ascending dose study NP10679-102, plasma pharmacokinetics
Format: in vivo
Conditions: human, iv, 25 mg, Tmax, MAD, 25 mg IV once daily, day 2
MEASURED_PARAMETER: Tmax (min)
Please state the figure in min; there is no need to write the unit.

Q: // returns reported Tmax for input O=C1CCc2cc(OC[C@H](O)CN3CCN(c4ccc(C(F)(F)F)cc4)CC3)ccc2N1
A: 54

====

Experiment: Single ascending dose study NP10679-101, plasma pharmacokinetics
Format: in vivo, human
Details: human, plasma, iv, 50 mg, VSS, SAD, single IV infusion 50 mg, mean ± SD
MEASURED_PARAMETER: Vd (L)
Report the value in L with no unit label.

Q: Return reported Vd; argument: O=C1CCc2cc(OC[C@H](O)CN3CCN(c4ccc(C(F)(F)F)cc4)CC3)ccc2N1 [NP10679]
A: 255
